Overview of reported pIC50 across a group of compounds:
# targetOrTestSystem: His6-TEV-PDGFRβ (557-1016) (Homo sapiens (Human))
# measurementNotes: PDGFRβ HTRF Assay
# Assay type: biochemical
# testConditions: read-out: PDGFR HTRF IC50
For clarity, pIC50 is expressed as the negative log10 of concentration in mol/L.

COc1ncccc1-c1cn2ncc(C(=O)Nc3cc(C(=O)NCCN4CC(C)(C)C4)cnc3C)c2s1 [Example 387]: 9.70
COCCn1cc(-c2cn3ncc(C(=O)Nc4cc(NC(=O)CN5CCC[C@H]5C)cnc4C)c3s2)cn1 [Example 330]: 9.22
Cc1ncc(NC(=O)CN2CC(C)(C)C2)cc1NC(=O)c1cnn2cc(-c3cnn4c3COCC4)sc12 [Example 476]: 9.70
COCCn1nc(C)c(-c2cn3ncc(C(=O)Nc4cc(NC(=O)CCN5CC6CCC(C5)O6)cnc4C)c3s2)c1C [Example 102]: 8.89
Cc1ncc(C(=O)NCCN2CC3CCC2CC3)cc1NC(=O)c1cnn2cc(-c3ccnc(N4CCOCC4)c3)sc12 [Example 484]: 9.70

In: Which pIC50 is reported for this compound? Cc1ncc(NC(=O)CN2CCCC(O)C2)cc1NC(=O)c1cnn2cc(-c3cnn(C)c3)sc12 (stereo not drawn) [Example 303]
Out: 9.40

In: Cool, now Cc1ncc(NC(=O)CN2CC(C)(C)C2)cc1NC(=O)c1cnn2cc(-c3ccsc3)sc12 [Example 282]
Out: 10.00

In: Cool, now Cc1cc(C(=O)NCCN2CC[C@@H](O)C2)sc1NC(=O)c1cnn2cc(-c3cnn(C)c3)sc12 [Example 194]
Out: 6.83

In: Cool, now Cc1cc(C(=O)NCCN2CC3CCC2CC3)sc1NC(=O)c1cnn2cc(-c3cnn(C)c3)sc12 [Example 199]
Out: 8.70

In: Cool, now Cc1ncc(NC(=O)CCCN2CCC[C@@H]2C)cc1NC(=O)c1cnn2cc(-c3cnn(C)c3)sc12 [Example 106]
Out: 8.89

In: Cool, now COC/C=C/c1cn2ncc(C(=O)Nc3cc(NC(=O)CN4C[C@H](C)O[C@@H](C)C4)cnc3C)c2s1 (relative stereo) [Example 367]
Out: 8.74

In: Cool, now CC[C@H]1CN(CC(=O)Nc2cnc(C)c(NC(=O)c3cnn4cc(-c5cccnc5OC)sc34)c2)CCO1 [Example 311]
Out: 9.70

In: Cool, now Cc1ncc(C(=O)NCCN2CC3CCC2CC3)cc1NC(=O)c1cnn2cc(-c3cnn(CC(N)=O)c3)sc12 [Example 150]
Out: 9.22

In: Cool, now COc1ncccc1-c1cn2ncc(C(=O)Nc3cc(NC(=O)CN4C[C@H](C)O[C@@H](C)C4)cnc3C)c2s1 (relative stereo) [Example 384]
Out: 9.40

In: Cool, now COc1ncccc1-c1cn2ncc(C(=O)Nc3cc(NC(=O)CN4CCCC4)cnc3C)c2s1 [Example 313]
Out: 9.70

---

# targetOrTestSystem: Tb-labeled inactive PDGFRβ (Homo sapiens (Human))
# Sequence (P09619 33-1106): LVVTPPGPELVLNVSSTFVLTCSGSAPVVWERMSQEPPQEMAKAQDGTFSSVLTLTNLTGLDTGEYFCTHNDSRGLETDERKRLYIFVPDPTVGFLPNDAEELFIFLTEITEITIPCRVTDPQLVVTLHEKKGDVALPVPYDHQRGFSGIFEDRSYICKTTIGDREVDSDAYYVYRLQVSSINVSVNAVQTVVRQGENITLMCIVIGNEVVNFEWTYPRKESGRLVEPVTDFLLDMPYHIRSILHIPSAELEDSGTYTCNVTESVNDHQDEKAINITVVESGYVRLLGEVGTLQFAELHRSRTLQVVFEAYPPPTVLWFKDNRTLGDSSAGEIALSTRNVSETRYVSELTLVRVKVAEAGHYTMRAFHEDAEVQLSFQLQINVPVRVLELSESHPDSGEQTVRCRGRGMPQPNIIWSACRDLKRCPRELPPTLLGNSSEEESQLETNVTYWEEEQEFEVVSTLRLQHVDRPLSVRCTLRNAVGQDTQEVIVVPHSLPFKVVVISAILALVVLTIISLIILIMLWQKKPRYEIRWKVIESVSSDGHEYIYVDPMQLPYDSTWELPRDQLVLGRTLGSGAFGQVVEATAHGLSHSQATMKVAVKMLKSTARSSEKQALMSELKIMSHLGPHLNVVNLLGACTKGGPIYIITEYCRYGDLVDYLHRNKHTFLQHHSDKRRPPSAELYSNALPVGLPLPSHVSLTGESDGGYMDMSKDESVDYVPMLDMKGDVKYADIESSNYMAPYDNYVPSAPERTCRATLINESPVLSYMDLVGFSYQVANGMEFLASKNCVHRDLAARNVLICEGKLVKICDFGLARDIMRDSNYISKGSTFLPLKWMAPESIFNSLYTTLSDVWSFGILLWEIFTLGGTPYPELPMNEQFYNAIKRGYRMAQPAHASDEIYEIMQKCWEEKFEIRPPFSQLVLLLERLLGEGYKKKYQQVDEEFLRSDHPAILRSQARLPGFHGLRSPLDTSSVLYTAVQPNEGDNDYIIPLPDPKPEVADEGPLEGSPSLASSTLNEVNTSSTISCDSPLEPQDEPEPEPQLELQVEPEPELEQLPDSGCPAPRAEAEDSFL
# measurementNotes: PDGFRβ LanthaScreen Assay
# testConditions: read-out: PDGFR Lantha IC50
measuredEndpoint: log10 IC50 (log10 of the value in nM)
On a log10 scale: recorded IC50, unit nM.

Cc1ncc(C(=O)NCC2CCCN2C)cc1NC(=O)c1cnn2cc(-c3cnn4c3CCC4)sc12 (stereo not drawn): 0.74
COc1ncccc1-c1cn2ncc(C(=O)Nc3cc(NC(=O)[C@@H]4C[C@H](C)CN4C)cnc3C)c2s1: 0.40
Cc1ncc(NC(=O)CN2CCC3(CCC3)C2)cc1NC(=O)c1cnn2cc(-c3cnn(CCO)c3)sc12: 0.52
COC/C=C/c1cn2ncc(C(=O)Nc3cc(C(=O)NCCN4CCCC4(C)C)cnc3C)c2s1: 1.28
COCCn1cc(-c2cn3ncc(C(=O)Nc4cc(NC(=O)CN5CCCC5)cnc4C)c3s2)cn1: 1.66
Cc1ncc(NC(=O)CN2CCC[C@H]2C)cc1NC(=O)c1cnn2cc(-c3cnn(C)c3)sc12: 1.07

In: Which log10 IC50 is reported for this compound? `Cc1ncc(NC(=O)CN2CC(C)(C)C2)cc1NC(=O)c1cnn2cc(-c3ccnc(N4CCOCC4)c3)sc12`
Out: 0.41

In: Cool, now `Cc1ncc(C(=O)NCCN2CCCC2(C)C)cc1NC(=O)c1cnn2cc(-c3ccncc3)sc12`
Out: 0.92

In: Cool, now `Cc1ncc(NC(=O)CNCC2CC2)cc1NC(=O)c1cnn2cc(-c3cnn4c3CCC4)sc12`
Out: 0.66

In: Cool, now `Cc1ncc(C(=O)NCCN2CC(F)(F)C2)cc1NC(=O)c1cnn2cc(-c3cnn(C)c3)sc12`
Out: 0.72

In: Cool, now `Cc1ncc(NC(=O)CN2CCOC(C)(C)C2)cc1NC(=O)c1cnn2cc(-c3cnn(C)c3)sc12`
Out: 0.76

In: Cool, now `Cc1ncc(NC(=O)CN2CC(C)(C)C2)cc1NC(=O)c1cnn2cc(-c3cccnc3OC(F)(F)F)sc12`
Out: 0.66

In: Cool, now `Cc1ncc(C(=O)NCCN2CCCC2)cc1NC(=O)c1cnn2cc(-c3cn(C)nc3C(F)(F)F)sc12`
Out: 1.33

In: Cool, now `Cc1ncc(NC(=O)CCN2CCCC2(C)C)cc1NC(=O)c1cnn2cc(-c3cccc4c3cnn4C)sc12`
Out: -0.15

In: Cool, now `Cc1ncc(NC(=O)CN2CCCC2)cc1NC(=O)c1cnn2cc(-c3cccnc3O)sc12`
Out: 1.59

In: Cool, now `Cc1ncc(NC(=O)CN2CC(C)(C)C2)cc1NC(=O)c1cnn2cc(-c3cnn(C4COC4)c3)sc12`
Out: 0.79

In: Cool, now `Cc1cc(C(=O)NCCN2CCCC2(C)C)sc1NC(=O)c1cnn2cc(-c3cnn(C)c3)sc12`
Out: 3.30
